system_tested: Nonstructural protein 3 (Zika virus)
test_name: Functional biochemical assay to identify treatments for viral infectious disease that targets Zika NS2B-NS3 protease. Utilizing a direct enzyme activity measurement method, reading the fluorescence intensity is used to characterize the relative potency of inhibitors as IC50.
Parameters: species or system PRVABC59
pIC50: −log10 of the molar value.
The molecules listed here are annotated with their pIC50.

Below, each entry is followed by its recorded pIC50 result.
{"structure_notation": "O=Cc1ccc(N2CCC(C(=O)N3CCC(CCN4CCCC4)CC3)CC2)cc1", "pIC50": "< 4.00"}
{"structure_notation": "O=C(Cn1ccnc(N2CC[C@H](CO)C2)c1=O)N[C@H]1CCOC1", "pIC50": "< 4.00"}
{"structure_notation": "C[C@]1(OCCO)C(=O)Nc2cc(F)cc(C(=O)Nc3ccc4c(c3)CNC4)c21", "pIC50": 5.95}

Shifting focus to the molecule that follows.
If you can, please state the reported pIC50 value of O=C(Nc1cc(Cl)cc(C(=O)Nc2ccc3c(c2)COC3)c1)OCc1ccccc1 .
< 4.00

###

system_tested: Nonstructural protein 3 (Zika virus, UniProt A0A024AXB9)
Sequence (A0A024AXB9 whole entry): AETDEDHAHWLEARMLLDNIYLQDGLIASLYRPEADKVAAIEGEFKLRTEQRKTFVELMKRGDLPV
test_name: Functional biochemical assay to identify treatments for viral infectious disease that targets Zika NS2B-NS3 protease. Utilizing a direct enzyme activity measurement method, reading the fluorescence intensity is used to characterize the relative potency of inhibitors as IC50.
Parameters: species or system PRVABC59
pIC50: −log10 of the molar value.
value_kind: pIC50

Below, each entry is followed by its recorded pIC50 result.
{"structure_notation": "CN1C(=O)Cc2cc(C(=O)Nc3ccc4c(c3)CNC4)ccc21", "pIC50": "< 4.60"}
{"structure_notation": "Cn1nc(C(=O)Nc2cccc(CN)c2)cc1C1CC1", "pIC50": "< 4.00"}
{"structure_notation": "NCc1cccc(NC(=O)c2cc(N)cc(Cl)c2)c1", "pIC50": 4.40}
{"structure_notation": "O=C(Nc1ccc2c(c1)CNC2)c1n[nH]c(=O)c2ccccc12", "pIC50": 4.65}
{"structure_notation": "Cc1ccc(NC(=O)c2cc(Cl)cc3[nH]ncc23)cc1CN", "pIC50": 5.86}
{"structure_notation": "NCc1cc(C(=O)O)cc([C@@H]2C[C@H]2c2cc(Cl)cc(NC(=O)OCc3ccccc3)c2)c1", "pIC50": "< 4.00"}
{"structure_notation": "CN1CCc2ccc(C(=O)N3CCNc4ccccc4C3)cc2C1", "pIC50": "< 4.00"}
{"structure_notation": "O=S(=O)(Nc1cccc(-c2nnn[nH]2)c1)c1cc(Cl)cc(C(F)(F)F)c1", "pIC50": "< 4.00"}

If you can, please state the reported pIC50 value of CCn1cc(C(=O)Nc2ccccc2)nc(N2CC[C@@H](CO)C2)c1=O .
< 4.00

If you can, please state the reported pIC50 value of CCn1c(=O)c(N2CC(S(=O)(=O)N3CCCC3)C2)nc2ccccc21 .
< 4.00

If you can, please state the reported pIC50 value of Cc1c(C(=O)Nc2cccc(-c3cccnc3)c2)cc(C2CC2)n1C .
< 4.60

###

system_tested: UniProt A0A024AXB9
test_name: Functional biochemical assay to identify treatments for viral infectious disease that targets Zika NS2B-NS3 protease. Utilizing a direct enzyme activity measurement method, reading the fluorescence intensity is used to characterize the relative potency of inhibitors as IC50.
Parameters: species or system PRVABC59
value_kind: IC50 (µM)
Report the value in µM with no unit label.

{"structure_notation": "O=C(NCC1CCOCC1)[C@H](Nc1ccc2c(c1)CNC2)c1cc(Cl)cc2[nH]ncc12", "IC50 [µM]": 0.209}

If you can, please state the reported IC50 value of NCc1ccc2c(c1)CCC[C@H]2NCc1cc(Cl)cc2c1OCC2 .
61.4

If you can, please state the reported IC50 value of C#Cc1cc(NC(=O)OCc2ccccc2)cc(C(=O)Nc2cccc(CN)c2)c1 .
36.4
